System: MOLM-13 (FLT3 ITD+/− mutant type)
test name: In vitro growth inhibition (GI50), MOLM-13
Assay type: cell-based, human
assay setup: Homo sapiens, MOLM-13; Cell lines of leukemia; read-out: GI 50 MOLM-13 FLT3 (ITD+/−)
Provide the recorded GI50 for the entries that follow.

[in] Give GI50 for the following molecule: CCOc1ccc2c(c1)ncn2-c1ccc(NC(=O)Nc2cc(C(C)(C)C)on2)cc1 [Compound 6]
[out] 0.1 to 1 nM

[in] Recall and state the measured GI50 for CC(C)Oc1ccc2c(c1)ncn2-c1ccc(NC(=O)Nc2cc(C(C)(C)C)on2)cc1 [Compound 8] .
[out] 0.1 to 1 nM

[in] Report measured GI50; entry is CC(C)(C)c1cc(NC(=O)Nc2ccc(-n3c(Cl)nc4ccccc43)cc2)no1 [Compound 36]
[out] 100 to 1000 nM

[in] Please look at this molecule and report its GI50: CC(C)(C)c1cc(NC(=O)Nc2ccc(-n3cnc4cc(OCC#N)ccc43)cc2)[nH]n1 [Compound 83]
[out] 0.1 to 1 nM

[in] For the molecule CCOC(=O)COc1ccc2c(c1)ncn2-c1ccc(NC(=O)n2nc(C(C)(C)C)cc2N)cc1 [Compound 124] , give its measured GI50 value.
[out] > 1000 nM

[in] Item CC(C)(C)c1cc(N)n(C(=O)Nc2ccc(-n3cnc4cc(OCCO)ccc43)cc2)n1 [Compound 121] : provide GI50
[out] 100 to 1000 nM

[in] Indicate its recorded GI50; the molecule in question is COCCOc1ccc2c(c1)ncn2-c1ccc(NC(=O)Nc2cc(C(C)(C)C)nn2C)cc1 [Compound 101]
[out] 0.1 to 1 nM

[in] Return the recorded GI50 value; entry: CC(C)(C)c1cc(NC(=O)Nc2ccc(-n3ncc4cccc(F)c43)cc2)no1 [Compound 47]
[out] 100 to 1000 nM

====

test name: In vivo pharmacokinetics in rats
Design: species or system rat
assay setup: male, SD, rat, plasma, iv, 5 mg/kg, intravenously, 5 mg/kg, individual animals 101-103, read-out: MRT (0-∞)
Structures can show the parent of a compound that is named as a salt.
measured property: MRT inf
Don't forget the unit after the number, please.

[in] Quote MRT inf reported for COCCOc1ccc2c(c1)ncn2-c1ccc(NC(=O)Nc2cc(C(C)(C)C)n[nH]2)cc1 [Compound 77 Mesylate] please.
[out] 4.42 h

====

test name: In vivo pharmacokinetics in rats
Parameters: species or system rat
assay setup: male, SD, rat, plasma, iv, 5 mg/kg, intravenously, 5 mg/kg, Mean, read-out: MRT(0-t)
Description: The pharmacokinetic experiments in rats were performed using compound 77 of the present invention as a representative example. […] The pharmacokinetic parameters (AUC(0-t), AUC(0-∞), T1/2, MRT(0-∞), Cmax, Tmax and F) were calculated using WinNonlin Professional v5.2 (Pharsight USA). In addition, the bioavailability (F) was calculated by the following formula.
Counter-ions that a name gives are not always drawn.
measured property: MRT last (h)
Response body: numeric value in h, unit text excluded.

[in] For the compound COCCOc1ccc2c(c1)ncn2-c1ccc(NC(=O)Nc2cc(C(C)(C)C)n[nH]2)cc1 [Compound 77 Mesylate] , report MRT last.
[out] 4.03

====

System: MOLM-13 (FLT3 ITD+/− mutant type)
test name: In vitro growth inhibition (GI50), MOLM-13
Format: cell-based, human
assay setup: Homo sapiens, MOLM-13; Cell lines of leukemia; read-out: GI 50 MOLM-13 FLT3 (ITD+/−)
Please provide measured GI50 for the entries that follow.

[in] Please supply the value of reported GI50 for the item "Cn1nc(C(C)(C)C)cc1NC(=O)Nc1ccc(-n2cnc3cc(OCCN4CCOCC4)ccc32)cc1"
[out] 0.1 to 1 nM

[in] Report measured GI50; entry is "CN(C)CCN(C)c1ccc2ncn(-c3ccc(NC(=O)Nc4cc(C(C)(C)C)on4)cc3)c2c1"
[out] 1 to 10 nM

[in] Quote GI50 reported for "CCCCCCOc1ccc2c(c1)ncn2-c1ccc(NC(=O)n2nc(C(C)(C)C)cc2N)cc1" please.
[out] 100 to 1000 nM

[in] Provide GI50 value for the following compound: "Nc1cc(C(F)(F)F)nn1C(=O)Nc1ccc(-n2cnc3ccccc32)cc1"
[out] 100 to 1000 nM

[in] Look up and state reported GI50 for "CC(C)(C)c1cc(NC(=O)Nc2ccc(-n3cnc4cc(OCCO)ccc43)cc2)[nH]n1"
[out] 0.1 to 1 nM

[in] Tell me measured GI50 for "O=C(Nc1ccc(-n2cnc3ccccc32)cc1)Nc1cc(-c2ccccc2)[nH]n1" please.
[out] 100 to 1000 nM

[in] Using known records, supply GI50 for "CC(C)(C)c1cc(NC(=O)Nc2ccc(-n3cnc4cc(F)ccc43)cc2)no1"
[out] 0.1 to 1 nM

[in] Please give the documented GI50 of "CN1CCN(CCCOc2ccc3c(c2)ncn3-c2ccc(NC(=O)Nc3cc(C(C)(C)C)n[nH]3)cc2)CC1"
[out] 0.1 to 1 nM

[in] Supply reported GI50 belonging to this compound: "CC(C)COc1ccc2c(c1)ncn2-c1ccc(NC(=O)Nc2cc(C(C)(C)C)n[nH]2)cc1"
[out] 1 to 10 nM

[in] For the compound "CC(C)(C)c1cc(NC(=O)Nc2ccc(-n3cnc4cc(F)ccc43)cc2)[nH]n1" , give its measured GI50 value.
[out] 0.1 to 1 nM

[in] Please report the measured GI50 for "Nc1cc(C2CC2)nn1C(=O)Nc1ccc(-n2cnc3ccccc32)cc1"
[out] 100 to 1000 nM

[in] Read off the recorded GI50 for "CC(C)(C)c1cc(NC(=O)Nc2ccc(-n3cnc4cc(C(F)(F)F)ccc43)cc2)[nH]n1"
[out] 1 to 10 nM

[in] Check the records and state GI50 for "Cc1noc(NC(=O)Nc2ccc(-n3cnc4ccccc43)cc2)c1C"
[out] 100 to 1000 nM

[in] For the compound "CC(C)(C)c1cc(NC(=O)Nc2ccc(-n3cnc4c(F)cccc43)cc2)no1" , give its measured GI50 value.
[out] 0.1 to 1 nM

[in] Return GI50 (reported value) for this compound: "CC(C)(C)c1cc(NC(=O)Nc2ccc(-n3nnc4ccccc43)cc2)no1"
[out] 100 to 1000 nM

[in] Look up and report measured GI50 for this entry: "CC(C)(C)c1cc(NC(=O)Nc2ccc(-n3cnc4cccc(OCCN5CCOCC5)c43)cc2)no1"
[out] > 1000 nM

[in] Please indicate GI50 recorded for "CC(C)c1cc(NC(=O)Nc2ccc(-n3cnc4ccccc43)cc2)on1"
[out] 10 to 100 nM

[in] Assign GI50 to the following record: "CC(C)(C)c1cc(NC(=O)Nc2ccc(-n3cnc4cc(Oc5nsnc5N5CCOCC5)ccc43)cc2)[nH]n1"
[out] 1 to 10 nM

[in] Determine its reported GI50: "CC(C)(C)c1cc(NC(=O)Nc2ccc(-n3cnc4cc(Br)cnc43)cc2)no1"
[out] 1 to 10 nM

[in] Entry "CC1(COc2ccc3c(c2)ncn3-c2ccc(NC(=O)Nc3cc(C(C)(C)C)n[nH]3)cc2)COC1" needs its GI50 filled in; supply it.
[out] 0.1 to 1 nM

[in] For the compound "CC(C)(C)c1cc(NC(=O)Nc2ccc(-n3cnc4ccccc43)cc2)n(-c2ccccc2F)n1" , give its reported GI50.
[out] 1 to 10 nM

[in] Determine from records and report GI50 for "CCOC(=O)COc1ccc2c(c1)ncn2-c1ccc(NC(=O)Nc2cc(C(C)(C)C)n[nH]2)cc1"
[out] 1 to 10 nM

[in] Give GI50 for the following compound: "CN1CCN(c2ccc3ncn(-c4ccc(NC(=O)Nc5cc(C(C)(C)C)on5)cc4)c3c2)CC1"
[out] 10 to 100 nM

[in] Please list GI50 recorded for the compound "CC(C)(C)c1cc(NC(=O)Nc2ccc(-n3cnc4cc(OCCN5CCCCCC5)ccc43)cc2)[nH]n1"
[out] 0.1 to 1 nM

[in] Output measured GI50 for this item: "Cc1cc2ncn(-c3ccc(NC(=O)Nc4cc(C(C)(C)C)on4)cc3)c2cc1C"
[out] 1 to 10 nM

[in] Identify measured GI50 corresponding to "CC(C)(C)c1ccn(C(=O)Nc2ccc(-n3cnc4ccccc43)cc2)n1"
[out] 100 to 1000 nM

[in] Check the records and state GI50 for CCC(C)Oc1ccc2c(c1)ncn2-c1ccc(NC(=O)Nc2cc(C(C)(C)C)n[nH]2)cc1 (centres unmarked)
[out] 0.1 to 1 nM

[in] Please give the documented GI50 of "Cc1ccc(-n2nc(C(C)(C)C)cc2NC(=O)Nc2ccc(-n3cnc4ccccc43)cc2)cc1"
[out] 10 to 100 nM

[in] Using the record for "CC(C)(C)c1cc(NC(=O)Nc2ccc(-n3cnc4ccccc43)c(Cl)c2)no1" , state its measured GI50.
[out] 100 to 1000 nM

[in] # return recorded GI50 for input "CC(C)(C)c1cc(NC(=O)Nc2ccc(-n3cnc4cccnc43)cc2)no1"
[out] 0.1 to 1 nM

[in] Please list GI50 recorded for the compound "COc1cc2ncn(-c3ccc(NC(=O)n4nc(C(C)(C)C)cc4N)cc3)c2cc1OC"
[out] 1 to 10 nM

[in] Report measured GI50; entry is "CCCCCCOc1ccc2c(c1)ncn2-c1ccc(NC(=O)Nc2cc(C(C)(C)C)n[nH]2)cc1"
[out] 0.1 to 1 nM
